Taken from ChEMBL document CHEMBL3244407.

Test system: Mus musculus
Test: Analgesic activity in mouse assessed as inhibition of acetic acid-induced writhing response at 30 mg/kg, po administered 30 mins prior to acetic acid-challenge relative to control
Type: functional
assay-endpoint: inhibition in vivo at 30 mg/kg (%)
Just the number please, in %, no unit attached.

Could you share which inhibition in vivo at 30 mg/kg value was measured for CN(C)CCCN1c2ccccc2CCc2ccccc21 ?
50

Could you share which inhibition in vivo at 30 mg/kg value was measured for Br.COc1ccc2c(c1)CCC1(CCCN1C)C2 (stereo not given) ?
75

Could you share which inhibition in vivo at 30 mg/kg value was measured for Br.Oc1ccc2c(c1)CCC1(CCCN1)C2 (stereo not given) ?
0

Could you share which inhibition in vivo at 30 mg/kg value was measured for COc1ccc2c(c1)CCC1(CCCN1)C2.Cl (stereo not given) ?
50

Could you share which inhibition in vivo at 30 mg/kg value was measured for Br.CN1CCCC12CCc1cc(O)ccc1C2 (stereo not given) ?
75
